ASSAY_METHOD_TEXT: Maximal tolerance dose (MTD) experiment
Assay type: in vivo, ICR mice
MEASUREMENT_CONTEXT: both sexes, ICR, mouse, in vivo, iv, ICR mice, intravenous injection, once a day for 5 consecutive days; read-out: Maximum tolerated dose / MTD result
REPORTED_ENDPOINT: MTD at 5 days (mg/kg)
// units = mg/kg; emit number, no label

Q: Param item = O=[N+]([O-])c1ccc([C@H](OP(=O)(N2CC2)N2CC2)C(F)(F)F)c2ccccc12 ; retrieve measured MTD at 5 days.
A: 20

###

System: H460 non-small cell lung cancer
ASSAY_METHOD_TEXT: Cytotoxicity test of human tumor cell line in vitro (CTG, 72 hours)
Assay type: cell-based
MEASUREMENT_CONTEXT: Homo sapiens, NCI-H460; H460, 72 hours exposure
Could you please report measured pIC50 for the items listed next?
Hey, just a heads up that pIC50 is the negative log base 10 of the concentration in molar.

Q: Request - read-out pIC50 | tested on H460 non-small cell lung cancer | compound O=[N+]([O-])c1ccc(C(OP(=O)(N2CC2)N2CC2)C(F)(F)F)cc1 (stereo not shown) [Control 2, reference compound]
A: 6.18

Q: Could you share what pIC50 was measured for CC(OP(=O)(N1CC1)N1CC1)c1ccc([N+](=O)[O-])c2cccnc12 (stereo not shown) , tested on H460 non-small cell lung cancer?
A: 7.45

Q: Look up pIC50 with H460 non-small cell lung cancer for this compound: O=[N+]([O-])c1cccc2c(C(OP(=O)(N3CC3)N3CC3)C(F)(F)F)cccc12 (stereo not shown)
A: 5.12

Q: // lookup pIC50 | system=H460 non-small cell lung cancer | key= O=[N+]([O-])c1ccc(C(OP(=O)(N2CC2)N2CC2)C(F)(F)F)c2ccncc12 (stereo not shown)
A: 8.10

Q: Item O=[N+]([O-])c1ccc(COP(=O)(N2CC2)N2CC2)c2ncccc12 with H460 non-small cell lung cancer - pIC50?
A: 7.38

Q: Write down the reported pIC50 of O=[N+]([O-])c1cccc2cc(COP(=O)(N3CC3)N3CC3)ccc12 , test system: H460 non-small cell lung cancer.
A: 6.32

Q: Kindly state the measured pIC50 obtained for CC(OP(=O)(N1CC1)N1CC1)c1ccc2cccc([N+](=O)[O-])c2c1 (stereo not shown) with H460 non-small cell lung cancer.
A: 6.77

Q: Param readout= pIC50; system= H460 non-small cell lung cancer; entry= O=[N+]([O-])c1ccc(C(OP(=O)(N2CC2)N2CC2)C(F)(F)F)c2ncccc12 (stereo not shown) ; returns value.
A: 7.46

Q: Query for H460 non-small cell lung cancer: what pIC50 does the record show for CC(OP(=O)(N1CC1)N1CC1)c1cccc2c([N+](=O)[O-])cccc12 (stereo not shown) ?
A: 6.16

Q: Any idea what pIC50 came out for O=[N+]([O-])c1c(COP(=O)(N2CC2)N2CC2)ccc2ccccc12 on H460 non-small cell lung cancer?
A: 6.09

Q: Requested read-out pIC50, target or system H460 non-small cell lung cancer, entry O=[N+]([O-])c1cc(COP(=O)(N2CC2)N2CC2)cc2ccccc12
A: 6.97

Q: Field: pIC50 (H460 non-small cell lung cancer). Entry: O=[N+]([O-])c1ccc(C(OP(=O)(N2CC2)N2CC2)C(F)(F)F)c2cccnc12 (stereo not shown)
A: 6.51

Q: // fetch H460 non-small cell lung cancer pIC50 for CC(OP(=O)(N1CC1)N1CC1)c1ccc([N+](=O)[O-])c2ncccc12 (stereo not shown)
A: 6.84

Q: Find the measured pIC50: item O=[N+]([O-])c1cccc2ccc(COP(=O)(N3CC3)N3CC3)cc12 , target or system H460 non-small cell lung cancer.
A: 6.76

Q: Request - read-out pIC50 | tested on H460 non-small cell lung cancer | compound CC(OP(=O)(N1CC1)N1CC1)c1ccc2ccccc2c1[N+](=O)[O-] (stereo not shown)
A: 5.03

Q: Field: pIC50 (H460 non-small cell lung cancer). Entry: O=[N+]([O-])c1cccc2ccc(C(OP(=O)(N3CC3)N3CC3)C(F)(F)F)cc12 (stereo not shown)
A: 5.42

Q: Could you share what pIC50 was measured for O=[N+]([O-])c1ccc(C(OP(=O)(N2CC2)N2CC2)C(F)(F)F)c2ccccc12 (stereo not shown) , tested on H460 non-small cell lung cancer?
A: 6.89

Q: Provide the documented pIC50 with H460 non-small cell lung cancer as the system for O=[N+]([O-])c1c(C(OP(=O)(N2CC2)N2CC2)C(F)(F)F)ccc2ccccc12 (stereo not shown)
A: 5.04

Q: Value wanted: pIC50 (H460 non-small cell lung cancer) of entry O=[N+]([O-])c1ccc(COP(=O)(N2CC2)N2CC2)c2ccccc12
A: 6.12

Q: Recall the recorded pIC50 for CC(OP(=O)(N1CC1)N1CC1)c1ccc([N+](=O)[O-])c2ccccc12 (stereo not shown) with H460 non-small cell lung cancer and state it.
A: 7.04

Q: Item O=[N+]([O-])c1ccc(COP(=O)(N2CC2)N2CC2)c2cccnc12 with H460 non-small cell lung cancer - pIC50?
A: 6.70

Q: Given the entry CC(OP(=O)(N1CC1)N1CC1)c1ccc([N+](=O)[O-])c2cnccc12 (stereo not shown) , what pIC50 was observed with H460 non-small cell lung cancer?
A: 8.42

Q: API: value(readout=pIC50, system=H460 non-small cell lung cancer) for record O=[N+]([O-])c1cccc2c(COP(=O)(N3CC3)N3CC3)cccc12
A: 5.78

Q: Kindly state the measured pIC50 obtained for O=[N+]([O-])c1ccc(COP(=O)(N2CC2)N2CC2)c2ccncc12 with H460 non-small cell lung cancer.
A: 8.14

Q: For the record CC(OP(=O)(N1CC1)N1CC1)c1ccc([N+](=O)[O-])c2ccncc12 (stereo not shown) , what value of pIC50 is listed for H460 non-small cell lung cancer?
A: 7.89

###

STUDY_TARGET: P-glycoprotein (Homo sapiens, UniProt P08183)
Sequence (P08183 whole entry): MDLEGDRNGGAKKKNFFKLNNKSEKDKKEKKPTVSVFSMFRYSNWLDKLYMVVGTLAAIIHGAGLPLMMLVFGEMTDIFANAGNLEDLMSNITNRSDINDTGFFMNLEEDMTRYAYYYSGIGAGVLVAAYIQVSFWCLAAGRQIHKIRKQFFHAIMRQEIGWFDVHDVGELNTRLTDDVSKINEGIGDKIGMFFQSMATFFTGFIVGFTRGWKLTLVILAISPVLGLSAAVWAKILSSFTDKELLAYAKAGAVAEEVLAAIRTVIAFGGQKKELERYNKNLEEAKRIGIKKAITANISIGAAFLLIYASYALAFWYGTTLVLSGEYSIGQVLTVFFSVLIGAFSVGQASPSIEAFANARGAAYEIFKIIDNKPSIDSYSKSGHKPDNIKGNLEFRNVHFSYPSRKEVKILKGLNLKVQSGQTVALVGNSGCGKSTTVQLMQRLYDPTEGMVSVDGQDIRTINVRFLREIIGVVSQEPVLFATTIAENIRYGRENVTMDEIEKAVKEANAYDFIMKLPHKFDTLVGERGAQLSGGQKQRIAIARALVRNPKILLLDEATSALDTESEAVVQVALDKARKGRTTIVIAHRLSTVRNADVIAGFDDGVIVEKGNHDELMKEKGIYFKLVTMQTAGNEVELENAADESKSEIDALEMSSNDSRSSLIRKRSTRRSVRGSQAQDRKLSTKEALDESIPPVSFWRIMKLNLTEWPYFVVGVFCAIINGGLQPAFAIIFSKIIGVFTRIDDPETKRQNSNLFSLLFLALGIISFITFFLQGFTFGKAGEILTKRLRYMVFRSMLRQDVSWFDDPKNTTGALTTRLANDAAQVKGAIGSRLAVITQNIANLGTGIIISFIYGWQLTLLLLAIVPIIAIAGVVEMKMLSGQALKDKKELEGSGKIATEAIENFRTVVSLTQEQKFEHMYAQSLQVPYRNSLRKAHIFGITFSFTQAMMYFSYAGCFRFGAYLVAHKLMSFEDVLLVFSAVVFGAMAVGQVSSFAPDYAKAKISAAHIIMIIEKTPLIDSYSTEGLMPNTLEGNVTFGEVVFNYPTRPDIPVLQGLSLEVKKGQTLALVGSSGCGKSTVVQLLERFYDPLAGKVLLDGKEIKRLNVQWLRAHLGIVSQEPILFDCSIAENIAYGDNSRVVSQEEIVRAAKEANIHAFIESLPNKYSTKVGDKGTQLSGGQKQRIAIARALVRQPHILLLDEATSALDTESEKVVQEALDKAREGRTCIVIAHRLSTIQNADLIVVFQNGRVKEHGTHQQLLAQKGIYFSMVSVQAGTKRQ
ASSAY_METHOD_TEXT: in vitro
MEASUREMENT_CONTEXT: dog, MDCK-MDR1, Recovery (%) AP-BL, Verapamil 100 μM
REPORTED_ENDPOINT: recovery at 2 h (%)
Report the figure in % without appending any unit label.

Q: # lookup: recovery at 2 h of O=[N+]([O-])c1ccc(COP(=O)(N2CC2)N2CC2)c2ncccc12
A: 87.6

Q: Record request: recovery at 2 h value, item O=[N+]([O-])c1ccc(C(OP(=O)(N2CC2)N2CC2)C(F)(F)F)c2ccccc12 (stereo not drawn)
A: 63.4

Q: Look up recovery at 2 h: CC(OP(=O)(N1CC1)N1CC1)c1ccc([N+](=O)[O-])c2cnccc12 (stereo not drawn)
A: 80.8

###

Test system: AA8 cell line
ASSAY_METHOD_TEXT: Cytotoxicity on AA8 cell line (2 hours exposure, AlamarBlue)
Format: cell-based, Chinese hamster
MEASUREMENT_CONTEXT: Cricetulus griseus, CHO-AA8; AA8, 2 hours exposure, then 70 hours, normoxic
REPORTED_ENDPOINT: pIC50
To interpret pIC50, take it as minus log10 of a concentration measured in moles per litre.

Q: Fill in: pIC50 of O=[N+]([O-])c1ccc(C(OP(=O)(N2CC2)N2CC2)C(F)(F)F)c2ccccc12 (stereo not shown) is ___
A: 4.96

###

What recovery at 2 h was measured for each of the following?
STUDY_TARGET: P-glycoprotein (Homo sapiens, UniProt P08183)
ASSAY_METHOD_TEXT: in vitro
MEASUREMENT_CONTEXT: dog, MDCK-MDR1, Recovery (%) BL-AP, Verapamil 0 μM
Include the unit after the number when you answer.

Q: Which recovery at 2 h is reported for this compound? O=[N+]([O-])c1ccc(C(OP(=O)(N2CC2)N2CC2)C(F)(F)F)c2ccccc12 (stereo not drawn) [Compound 01]
A: 58.6%

Q: Name the reported recovery at 2 h value associated with the compound O=[N+]([O-])c1ccc(COP(=O)(N2CC2)N2CC2)c2ncccc12 [Compound 20]
A: 96.3%

Q: # lookup: recovery at 2 h of CC(OP(=O)(N1CC1)N1CC1)c1ccc([N+](=O)[O-])c2cnccc12 (stereo not drawn) [Compound 14]
A: 104%

###

System: AA8
ASSAY_METHOD_TEXT: Cytotoxicity on cell lines of different species: AA8
Type: cell-based
MEASUREMENT_CONTEXT: CHO-AA8; AA8, Rat; exposure time: 72 h
REPORTED_ENDPOINT: IC50

Q: Reported IC50 for AA8, given Cn1c(COP(=O)(NCCBr)NCCBr)cnc1[N+](=O)[O-] [Control 1, Evofosfamide, reference compound] ?
A: 830 µM

###

For each entry below, report its recovery at 2 h value.
STUDY_TARGET: UniProt P08183
ASSAY_METHOD_TEXT: in vitro
MEASUREMENT_CONTEXT: dog, MDCK-MDR1, Recovery (%) BL-AP, Verapamil 100 μM
The response must be a number in % with no trailing unit.

Q: // map O=[N+]([O-])c1ccc(COP(=O)(N2CC2)N2CC2)c2ncccc12 to recorded recovery at 2 h (system: UniProt P08183)
A: 96.2

Q: Give recorded recovery at 2 h with UniProt P08183 for the following compound: CC(OP(=O)(N1CC1)N1CC1)c1ccc([N+](=O)[O-])c2cnccc12 (stereo not drawn)
A: 90.8

Q: Provide value of recovery at 2 h for this record tested with UniProt P08183: O=[N+]([O-])c1ccc(C(OP(=O)(N2CC2)N2CC2)C(F)(F)F)c2ccccc12 (stereo not drawn)
A: 67.3
